- study target: Sialidase-4 (Homo sapiens, UniProt Q8WWR8)
- Sequence (Q8WWR8 whole entry): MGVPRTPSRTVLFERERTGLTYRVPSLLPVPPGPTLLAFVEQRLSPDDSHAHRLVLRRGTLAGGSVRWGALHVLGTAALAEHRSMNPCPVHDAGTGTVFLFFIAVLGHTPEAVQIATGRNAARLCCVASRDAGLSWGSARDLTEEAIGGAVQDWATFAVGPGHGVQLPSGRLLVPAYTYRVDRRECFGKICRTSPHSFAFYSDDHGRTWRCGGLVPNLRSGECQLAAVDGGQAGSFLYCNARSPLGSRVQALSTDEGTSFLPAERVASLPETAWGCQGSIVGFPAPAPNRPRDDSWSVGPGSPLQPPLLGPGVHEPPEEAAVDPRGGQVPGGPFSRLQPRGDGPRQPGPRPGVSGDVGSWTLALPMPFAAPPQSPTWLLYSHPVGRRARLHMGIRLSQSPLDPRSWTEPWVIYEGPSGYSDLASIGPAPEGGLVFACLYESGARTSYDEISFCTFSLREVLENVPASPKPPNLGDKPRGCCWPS
- protocol details: Inhibition of Homo sapiens (human) NEU4 expressed in HEK293 cells using 4MU-NeuAc as substrate after 10 to 30 min by fluorometric analysis
- Format: cell-based
result type: IC50 (µM)
A number alone suffices; assume µM.

Please look up its IC50: O=C(O)c1oc(C(=O)O)c(OCc2ccccc2)c1OCc1ccccc1
670

Source: ChEMBL document CHEMBL3045655
